- assay: activity coefficient (dimensionless); of the first substance listed, at infinite dilution; xn = mol fraction of the nth substance listed
- settings: 288.15 K; 100 kPa; Liquid; inert gas stripping; x1 = 0
propertyMeasured: activity coefficient
Please reply with the number alone, leaving off any unit.

Worked cases, activity coefficient given:
[[record]]
molecule = "CC(=O)C(C)(C)C [3,3-dimethyl-2-butanone] + O"
propertymeasured = "activity coefficient"
reportedvalue = 272

[[record]]
molecule = "CCCC(C)=O [pentan-2-one] + O"
propertymeasured = "activity coefficient"
reportedvalue = 78.7

[[record]]
molecule = "CCC(=O)C(C)C [2-methyl-3-pentanone] + O"
propertymeasured = "activity coefficient"
reportedvalue = 329

[[record]]
molecule = "CCC(=O)CC [pentan-3-one] + O"
propertymeasured = "activity coefficient"
reportedvalue = 92.8

[[record]]
molecule = "CC(=O)C(C)C [3-methyl-2-butanone] + O"
propertymeasured = "activity coefficient"
reportedvalue = 72.9

[[record]]
molecule = "CCCC(=O)CC [3-hexanone] + O"
propertymeasured = "activity coefficient"
reportedvalue = 340

[[record]]
molecule = "CCC(C)C(C)=O (stereo not drawn) [3-methyl-2-pentanone] + O"
propertymeasured = "activity coefficient"
reportedvalue = 268


query: Check the records and state activity coefficient for CCCCC(C)=O [2-hexanone] + O
result: 331
